ASSAY: Clinical plasma pharmacokinetics
CONDITIONS: human, in vivo, t1/2
READOUT: half-life

Problem: I'd like to know its half-life. The compound in question is C[C@H](NC(=O)c1c(N)nn2cccnc12)c1cc2cccc(C#Cc3cnn(C)c3)c2c(=O)n1-c1ccccc1
Result: 10.6 to 39.8 h

* * *

ASSAY: Clinical plasma pharmacokinetics
CONDITIONS: human, in vivo, po
READOUT: Tmax

Problem: I'd like to know its Tmax. The compound in question is C[C@H](NC(=O)c1c(N)nn2cccnc12)c1cc2cccc(C#Cc3cnn(C)c3)c2c(=O)n1-c1ccccc1
Result: 1 to 6 h
